Listing of entries alongside the reported CLR/RAMP2 EC50.
target.or.test.system: CLR/RAMP2 receptor (UniProt Q16602 23-461; O60895 43-175, limits assumed)
Sequence (Q16602 23-461 limits assumed, chain 1 of 2): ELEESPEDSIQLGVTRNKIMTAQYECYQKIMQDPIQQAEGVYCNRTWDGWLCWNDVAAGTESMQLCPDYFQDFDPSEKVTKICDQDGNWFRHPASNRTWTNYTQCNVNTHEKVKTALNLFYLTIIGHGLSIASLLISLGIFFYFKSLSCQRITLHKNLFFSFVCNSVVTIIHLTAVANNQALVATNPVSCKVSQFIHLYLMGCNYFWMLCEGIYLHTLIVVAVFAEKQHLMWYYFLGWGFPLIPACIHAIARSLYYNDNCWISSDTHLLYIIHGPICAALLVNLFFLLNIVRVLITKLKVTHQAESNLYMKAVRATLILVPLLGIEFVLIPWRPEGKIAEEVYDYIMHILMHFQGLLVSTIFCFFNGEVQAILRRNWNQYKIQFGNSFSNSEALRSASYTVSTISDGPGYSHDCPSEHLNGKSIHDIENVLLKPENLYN
Sequence (O60895 43-175 limits assumed, chain 2 of 2): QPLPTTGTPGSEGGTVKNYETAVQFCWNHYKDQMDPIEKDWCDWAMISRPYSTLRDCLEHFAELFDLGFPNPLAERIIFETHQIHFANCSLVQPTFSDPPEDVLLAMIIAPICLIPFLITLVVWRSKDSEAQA
experiment: cell-based or functional assay
Square brackets hold non-standard residues; d marks the D form. Ends that are not written are not given here. * marks the point of attachment. Palmitoyl = CCCCCCCCCCCCCCCC(=O)*; AEEA = NCCOCCOCC(=O)O

{"binder": "KGCRFGTCTVQKLAHQIYQFTDKDVAPRSKISPQGY (miniPEG- at N-terminus; K(PAL); (D-Ser) in ...VAPR(D-Ser)KISPQGY; -NH2) [SEQ ID NO: 213]", "CLR/RAMP2 EC50": "0.7 nM"}
{"binder": "Ac-TK(Palmitoyl)KTLRTGCRFGTCTVQKLAHQIYQFTDKDKDNSAPVDPSSPHSY-NH2 (ends and bridges not checked) [SEQ ID NO: 39]", "CLR/RAMP2 EC50": "0.5 nM"}
{"binder": "Ac-K(Palmitoyl)GCRFGTCTVQKLAHQIYQFTDKDKDNVAPRSKSSPHSY-NH2 (ends and bridges not checked) [SEQ ID NO: 65]", "CLR/RAMP2 EC50": "19 nM"}
{"binder": "Palmitoyl-KGCRFGTCTVQKLAHQIYQFTDKDKDNVAPVDPSSPHSY-NH2 (ends and bridges not checked) [SEQ ID NO: 34]", "CLR/RAMP2 EC50": "0.7 nM"}
{"binder": "Palmitoyl-KGCRFGTCTVQKLAHQIYQFTDKGRQDSAPVDPSSPHSY-NH2 (ends and bridges not checked) [SEQ ID NO: 36]", "CLR/RAMP2 EC50": "0.9 nM"}
{"binder": "Palmitoyl-KGCRFGTCTVQKLAHQIYQFTDKDKDNSAPVDPSSPHSY-NH2 (cysteine pairing not given here) [SEQ ID NO: 30]", "CLR/RAMP2 EC50": "0.6 nM"}
{"binder": "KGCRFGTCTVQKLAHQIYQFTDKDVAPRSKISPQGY (miniPEG- at N-terminus; K(PAL); (D-Val) in ...GTCT(D-Val)QKL...; -NH2) [SEQ ID NO: 211]", "CLR/RAMP2 EC50": "0.9 nM"}
{"binder": "Palmitoyl-KTKKTLRTGCRFGTCTVQKLAHQIYQFTDKDKDNSAPVDPSSPHSY-NH2 (ends and bridges not checked) [SEQ ID NO: 38]", "CLR/RAMP2 EC50": "0.7 nM"}
{"binder": "Ac-KGCRFGTCTVQKLAHQIYQFTDKDKDNVAPVDPSSPHSY-NH2 (ends and bridges not checked) [SEQ ID NO: 60]", "CLR/RAMP2 EC50": "3 nM"}
{"binder": "Palmitoyl-KGCRFGTCTVQKLAHQIYQFTDKDKQDSAPVDPSSPHSY-NH2 (ends and bridges not checked) [SEQ ID NO: 35]", "CLR/RAMP2 EC50": "1 nM"}
{"binder": "Palmitoyl-KTKKTLRTGCRFGTCTVQKLAHQIYQFTDKDKDNVAPVDPSSPHSY-NH2 (ends and bridges not checked) [SEQ ID NO: 40]", "CLR/RAMP2 EC50": "1 nM"}
{"binder": "Palmitoyl-KCRFGTCTVQKLAHQIYQFTDKDKDNSAPVDPSSPHSY-NH2 (ends and bridges not checked) [SEQ ID NO: 44]", "CLR/RAMP2 EC50": "0.2 nM"}
{"binder": "[AEEA]K(Palmitoyl)CRFGTCTVQKLAHQIYQFTDKDKDNSAPVDPSSPHSY-NH2 (ends and bridges not checked) [SEQ ID NO: 43]", "CLR/RAMP2 EC50": "0.2 nM"}
{"binder": "Ac-VGCRFGTCTVQKLAHQIYQFTPAGRQDSAPVDPSSPHSY-NH2 (ends and bridges not checked) [SEQ ID NO: 57]", "CLR/RAMP2 EC50": "149 nM"}
{"binder": "Palmitoyl-KGCRFGTCTVQKLAHQIYQFTDKDAPVDPSSPHSY-NH2 (ends and bridges not checked) [SEQ ID NO: 110]", "CLR/RAMP2 EC50": "6.4 nM"}
{"binder": "TKKTLRTGCRFGTCTVQKLAHQIYQFTDKDKDNVAPVDPSSPHSY (miniPEG- at N-terminus; K(Pal) at position 2 (miniPEG-TK(Pal)K...); -NH2) [SEQ ID NO: 42]", "CLR/RAMP2 EC50": "0.2 nM"}
{"binder": "Palmitoyl-GCRFGTCTVQKLAHQIYQFTDKDKDNSAPVDPSSPHSY-NH2 (ends and bridges not checked) [SEQ ID NO: 45]", "CLR/RAMP2 EC50": "0.3 nM"}
{"binder": "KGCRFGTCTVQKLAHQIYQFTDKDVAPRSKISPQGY (miniPEG- at N-terminus; K(PAL); (D-Gln) in ...KISP(D-Gln)GY; -NH2) [SEQ ID NO: 214]", "CLR/RAMP2 EC50": "0.4 nM"}
{"binder": "Palmitoyl-KGCRFGTCTVQKLAHQIYQFTDKDKDNVAPRSKSSPHSY-NH2 (ends and bridges not checked) [SEQ ID NO: 63]", "CLR/RAMP2 EC50": "7 nM"}
{"binder": "Ac-KGCRFGTCTVQKLAHQIYQFTDKDKDNSAPVDPSSPHSY-NH2 (ends and bridges not checked) [SEQ ID NO: 59]", "CLR/RAMP2 EC50": "18 nM"}
